target: UniProt:Q8ZKQ6
assay.name: biochemical
Type: biochemical, S. typhimurium
Where a name gives a salt, the structure may show the parent alone.
# cutoff 2% applies to inhibition at 50 µM; >= gives y, < gives n

Example entries begin here.
| compound | assigned.class |
| --- | --- |
| O=c1cccc2n1C[C@@H]1CNC[C@H]2C1 | y |
| CCN(CC)CCOC(=O)C(c1ccccc1)C1CCCCC1 (stereo not shown) [DROFENINE HYDROCHLORIDE] | n |
| O=C(O)c1ccccc1Nc1cccc(C(F)(F)F)c1 | y |
| NC(=O)c1ncn([C@@H]2O[C@H](CO)[C@@H](O)[C@H]2O)n1 | y |
| CC[C@H]1OC(=O)[C@H](C)[C@@H](O[C@H]2C[C@@](C)(OC)[C@@H](O)[C@H](C)O2)[C@H](C)[C@@H](O[C@@H]2O[C@H](C)C[C@H](N(C)C)[C@H]2O)[C@](C)(O)C[C@@H](C)C(=O)[C@H](C)[C@@H](O)[C@]1(C)O | n |

Query string: Is inhibition at 50 µM at least 2%? Consider `CO[C@@]12[C@H](COC(N)=O)C3=C(C(=O)C(C)=C(N)C3=O)N1C[C@@H]1N[C@@H]12`
Result string: n

====

target: LsrK (Salmonella typhimurium, UniProt Q8ZKQ6)
Sequence (Q8ZKQ6 whole entry): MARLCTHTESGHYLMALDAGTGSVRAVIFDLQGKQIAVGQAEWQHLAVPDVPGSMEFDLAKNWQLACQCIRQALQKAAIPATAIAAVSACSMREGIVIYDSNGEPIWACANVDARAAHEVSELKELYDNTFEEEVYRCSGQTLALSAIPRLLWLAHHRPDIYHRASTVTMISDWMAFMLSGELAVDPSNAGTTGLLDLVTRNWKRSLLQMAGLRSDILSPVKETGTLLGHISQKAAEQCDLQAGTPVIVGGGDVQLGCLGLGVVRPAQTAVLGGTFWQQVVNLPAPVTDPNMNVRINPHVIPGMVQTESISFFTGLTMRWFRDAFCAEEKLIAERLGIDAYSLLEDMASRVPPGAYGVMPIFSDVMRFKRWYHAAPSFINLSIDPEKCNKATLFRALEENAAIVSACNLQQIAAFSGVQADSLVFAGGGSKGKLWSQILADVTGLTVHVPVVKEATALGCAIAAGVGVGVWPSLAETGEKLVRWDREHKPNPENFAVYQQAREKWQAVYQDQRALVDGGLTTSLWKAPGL
assay.name: biochemical
Type: biochemical, S. typhimurium
Counter-ions that a name gives are not always drawn.
readout.kind: inhibition at 50 µM (%)
Give bare numbers, in %.

Known results for compounds:
| compound | inhibition at 50 µM (%) |
| --- | --- |
| O=C(O)CCNC(=O)c1ccccc1 [BETAMIPRON] | 0 |
| CC1=C(C(=O)O)N2C(=O)[C@@H](NC(=O)[C@H](N)c3ccc(O)cc3)[C@H]2SC1 [CEFADROXIL] | 1 |
| OC[C@@H](O)[C@H]1O[C@@H]2O[C@H](C(Cl)(Cl)Cl)O[C@@H]2[C@H]1O [CHLORALOSE] | 1 |
| COC1=CC(=O)C(C(=O)c2ccccc2)=CC1=O [2-BENZOYL-5-METHOXYBENZOQUINONE] | 38 |
| O=C(O)c1cc(=O)[nH]c(=O)[nH]1 [OROTIC ACID] | 1 |
| CCCCN1CCCCC1C(=O)Nc1c(C)cccc1C (stereo not drawn) [BUPIVACAINE HYDROCHLORIDE] | 2 |

# batch: return inhibition at 50 µM for each of the 2 compounds below
1. C[C@H](CCC(=O)NCC(=O)O)[C@H]1CC[C@H]2[C@@H]3[C@H](O)C[C@@H]4C[C@H](O)CC[C@]4(C)[C@H]3C[C@H](O)[C@]12C [GLYCOCHOLIC ACID]
2. COc1ccccc1OCC(O)CO (stereo not drawn) [GUAIFENESIN]

Result string:
[1, 0]

# batch: return inhibition at 50 µM for each of the 2 compounds below
1. CC1=C(/C=C/C(C)=C/C=C/C(C)=C/C=C/C=C(C)/C=C/C=C(C)/C=C/C(=O)[C@]2(C)C[C@@H](O)CC2(C)C)C(C)(C)C[C@H](O)C1 [CAPSANTHIN]
2. CC(C)(C)CC(C)(C)c1ccc(O)c(Cc2ccc(Cl)cc2Cl)c1 [CLOFOCTOL]

Result string:
[1, 2]

====

target: LsrK (Salmonella typhimurium, UniProt Q8ZKQ6)
assay.name: biochemical
Type: biochemical, S. typhimurium
Structures can show the parent of a compound that is named as a salt.
Consider the following molecules; for each one, report its inhibition at 50 µM.

Known results for molecules:
| molecule | inhibition at 50 µM |
| --- | --- |
| CCN1CCCC1CNC(=O)c1cc(S(N)(=O)=O)ccc1OC (centres unmarked) [SULPIRIDE] | 83% |
| C[n+]1cc2c3c(ccc2c2ccc4cc5c(cc4c21)OCO5)OCO3 [SANGUINARINE SULFATE] | 84% |
| CCC(=O)O[C@]1(C(=O)CCl)[C@@H](C)C[C@H]2[C@@H]3CCC4=CC(=O)C=C[C@]4(C)[C@@]3(F)[C@@H](O)C[C@@]21C [CLOBETASOL PROPIONATE] | 2% |

# batch: return inhibition at 50 µM for each of the 3 molecules below
1. COc1ccc2cc3[n+](cc2c1OC)CCc1cc2c(cc1-3)OCO2 [BERBERINE CHLORIDE]
2. CCN(CC)C(=S)SSC(=S)N(CC)CC
3. O=C1NC(=O)C(=O)C(=O)N1 [ALLOXAN]

Result string:
1%
154%
18%

# batch: return inhibition at 50 µM for each of the 2 molecules below
1. CC(C)c1nc(N(C)S(C)(=O)=O)nc(-c2ccc(F)cc2)c1/C=C/[C@@H](O)C[C@@H](O)CC(=O)O [ROSUVASTATIN CALCIUM]
2. O=C(O)C1=CC(=C(c2ccc(O)c(C(=O)O)c2)c2ccc(O)c(C(=O)O)c2)C=CC1=O [AURIN TRICARBOXYLIC ACID]

Result string:
1: 1%; 2: 96%

This collection of values is drawn from paper PMC6627609.
